Assay: Durability of poly(allyl diglycol carbonate) lens impregnated with the compound in silicone oil, as in Example 9 (Example 10)
Format: physicochemical
Details: silicone oil impregnation, xenon fadeometer
T1/2 vs 80 h: less than gives 1; not less than gives -1.

Please review the entries below; each comes with its answer.
>>> print(df.to_string())
                                   molecule  qualitative_label
0  O=C1C2=C(C3CC3)c3cc(Br)sc3C3(C4CCCC3CCC4)C2C(=O)N1CCc1ccc2ccccc2c1 (stereo not shown)                  1
1  CC(=O)OCN1C(=O)C2=C(C3CC3)c3sc(Br)cc3C3(C4CC5CC(C4)CC3C5)C2C1=O (stereo not shown)                  1
2  O=C1OC(=O)C2C1=C(C1CC1)c1c(sc3c1CCCC3)C21C2CCCC1CCC2 (stereo not shown)                  1

Identify whether the molecule Cc1cc2c(n1C)C1(C3CCCC1CCC3)C1C(=O)OC(=O)C1=C2C1CC1 (stereo not shown) records T1/2 below 80 h.
1

hey, is T1/2 for COC(=O)C(C)N1C(=O)C2=C(C3CC3)c3cc(-c4cccc(OC)c4)sc3C3(C4CC5CC(Cl)(C4)CC3(Cl)C5)C2C1=O (stereo not shown) lower than 80 h or not?
-1

====

I'd appreciate it if you could supply T1/2 values for the items below.
Assay: Photochromic PMMA cast film: initial coloration density, maximum absorption wavelength and fatigue life in xenon fadeometer (Example 9)
Type: physicochemical
Conditions: time for color density to fall to half of initial value; PMMA cast film 0.1 mm, xenon fadeometer, no stabilizer
Give bare numbers, in h.

Need T1/2 for each of these compounds.
1. COc1cc2c(c(OC)c1OC)C1(C3CCC1CC3)C1C(=O)OC(=O)C1=C2C1CC1 (stereo not drawn)
2. Cc1cc2c(s1)C1(C3CCC1CC3)C1C(=O)N(C[N+](=O)[O-])C(=O)C1=C2C1CC1 (stereo not drawn)

52
75

# batch: return T1/2 for each of the 4 compounds below
1. COC(=O)C(C)N1C(=O)C2=C(C3CC3(C)C)c3ccoc3C3(C4CCC3(Cl)CC4)C2C1=O (stereo not drawn)
2. CCOC(=O)OCN1C(=O)C2=C(C3CC3c3ccccc3)c3cc(OCC)sc3C3(C4CC5CC(C)(C4)CC3(C)C5)C2C1=O (stereo not drawn)
3. NC1CC1C1=C2C(=O)N(COC(=O)Cc3cccc4ccccc34)C(=O)C2C2(c3c1ccn3-c1ccccc1)C1(O)CCC2(O)CC1 (stereo not drawn)
4. CC(=O)CN1C(=O)C2=C(C3CC3C)c3cc(-c4ccccc4)sc3C3(C4CCC3CC4)C2C1=O (stereo not drawn)

[77, 65, 71, 80]

The following compounds each have a reported value; give each one's T1/2.
1. CNC(=O)CN1C(=O)C2=C(C3CC3C(F)(F)F)c3cc([N+](=O)[O-])sc3C3(C4CCC3CC4)C2C1=O (stereo not drawn)
2. O=C1OC(=O)C2C1=C(C1CC1)c1cc(Br)sc1C21C2CC3CC(C2)CC1C3 (stereo not drawn)
3. CC1=C2C(=O)N(CCc3cccc4ccccc34)C(=O)C2C2(c3c1sc1c3CCCC1)C1CCCC2CCC1 (stereo not drawn) [(F), reference compound]

1. 65
2. 54
3. 13

For each of the compounds below, state T1/2.
1. COC(=O)C(C)N1C(=O)C2=C(C3CC3OC(C)(C)C)c3cc(Cl)oc3C3(C4CCCC3(C)CC(C)(C)C4)C2C1=O (stereo not drawn)
2. COc1cc(OC)c2c(c1)C(C1CC1O)=C1C(=O)N(C3CCC([N+](=O)[O-])CC3)C(=O)C1C21C2CCCC1(Cl)CCC2 (stereo not drawn)
3. COC(=O)CN1C(=O)C2=C(C3CC3)c3ccoc3C3(C4CCC3CC4)C2C1=O (stereo not drawn)
4. O=C1C2=C(C3CC3)c3sc4c(c3C3(C5CCCC3CCC5)C2C(=O)N1CCc1cccc2ccccc12)CCCC4 (stereo not drawn)

1. 72
2. 62
3. 89
4. 7.8

# batch: return T1/2 for each of the 2 compounds below
1. CC(C)COC(=O)CN1C(=O)C2=C(C3C(CCl)C3CCl)c3cc(Br)sc3C3(C4CCCC3CCC4)C2C1=O (stereo not drawn)
2. COc1cc2c(c(OC)c1OC)C1(C3CC4CC1CC(OC)(C4)C3)C1C(=O)N(CC(=O)NCCBr)C(=O)C1=C2C1CC1C(Cl)(Cl)Cl (stereo not drawn)

53
65

====

Test: Fatigue life of photochromic PMMA cast film with ultraviolet stabilizer, xenon fadeometer (Examples 11-14)
Format: physicochemical
Conditions: PMMA film, UV stabilizer Cyasorb UV1084, 0.2 part
Would you kindly list T1/2 for each of these compounds?
One number for each entry, in days.

Reference set, count: 2
>>> print(df.to_string())
                                   compound  unit_of_measurement  result_value
0  CCn1c2c(c3ccccc31)C(C1CC1)=C1C(=O)OC(=O)C1C21C2CC3CC1CC(C)(C3)C2 (stereo not shown) [(57)]                 days          9.17
1  COC(=O)CN1C(=O)C2=C(C3CC3)c3ccsc3C3(C4CCC3CC4)C2C1=O (stereo not shown) [(1)]                 days          12.9

For every listed record, write down its T1/2.
1. CCOC(=O)OCN1C(=O)C2=C(C3CC3c3ccccc3)c3cc(OCC)sc3C3(C4CC5CC(C)(C4)CC3(C)C5)C2C1=O (stereo not shown) [(41)]
2. Cc1cc2c(n1C)C1(C3CC4CC(F)(C3)CC1(F)C4)C1C(=O)N(C3CCC([N+](=O)[O-])CC3)C(=O)C1=C2C1CC1 (stereo not shown) [(40)]
3. N#CCN1C(=O)C2=C(C3CC3)c3ccsc3C3(C4CCC3CC4)C2C1=O (stereo not shown) [(2)]
4. CCC(C(=O)C[N+](=O)[O-])N1C(=O)C2=C(C3CC3)c3cc(OC)cc(OC)c3C3(C4CC5CC(C4)CC3C5)C2C1=O (stereo not shown) [(45)]
5. CCCCC1CC1C1=C2C(=O)N(C(C)(C)C#N)C(=O)C2C2(c3c(OC)cc(OC)cc31)C1CCC2(CCCC)CC1 (stereo not shown) [(17)]

[11, 11.7, 14.6, 11, 9.58]

====

Test: Photochromic PMMA cast film: initial coloration density, maximum absorption wavelength and fatigue life in xenon fadeometer (Example 9);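 on Initial color density: initial color density is an absorbance value so the % unit is wrong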
Format: physicochemical
Conditions: PMMA cast film 0.1 mm, xenon light, no stabilizer
Binary call on Initial color density: criterion met from 0.8% upward, criterion not met beneath that.

Previously resolved entries follow.
                                   compound  qualitative_label
0  COc1cc(OC)c2c(c1)C(C1CC1O)=C1C(=O)N(C3CCC([N+](=O)[O-])CC3)C(=O)C1C21C2CCCC1(Cl)CCC2 (stereo not shown)  criterion not met
1  CC(=O)OCN1C(=O)C2=C(C3CC3)c3sc(Br)cc3C3(C4CC5CC(C4)CC3C5)C2C1=O (stereo not shown)  criterion not met
2  CC1=C2C(=O)N(CCc3cccc4ccccc34)C(=O)C2C2(c3c1sc1c3CCCC1)C1CCCC2CCC1 (stereo not shown) [(F), reference compound]  criterion not met
3  CN(C)c1ccc2cc(CCCN3C(=O)C4=C(C5CC5)c5c([N+](=O)[O-])csc5C5(C6CC7CC(C6)CC5C7)C4C3=O)ccc2c1 (stereo not shown)  criterion not met
4  O=C1OC(=O)C2C1=C(C1CC1)c1cc([N+](=O)[O-])sc1C21C2CC3CC(C2)CC1C3 (stereo not shown)      criterion met

I'd appreciate it if you could say whether CNC(=O)CN1C(=O)C2=C(C3CC3C(F)(F)F)c3cc([N+](=O)[O-])sc3C3(C4CCC3CC4)C2C1=O (stereo not shown) has Initial color density at least equal to 0.8%.
criterion not met

====

Experiment: Photochromic PMMA cast film: initial coloration density, maximum absorption wavelength and fatigue life in xenon fadeometer (Example 9)
Assay type: physicochemical
Settings: time for color density to fall to half of initial value; PMMA cast film 0.1 mm, xenon fadeometer, no stabilizer
Description: The thickness of the cast film was adjusted to 0.1 mm. T1/2 is defined as the time required for the color density to decrease to half of its initial value when the film is exposed to the fadeometer.
Assay Readout: T1/2 (h)
Answers are plain numbers, in h.

>>> print(df.to_string())
                                   compound  result_value
0  CCCCC1CC1C1=C2C(=O)N(C(C)(C)C#N)C(=O)C2C2(c3c(OC)cc(OC)cc31)C1CCC2(CCCC)CC1 (stereo not drawn)            58
1  Cc1cc2c(s1)C1(C3CC4CC(Cl)(C3)CC1(Cl)C4)C1C(=O)OC(=O)C1=C2C1CC1 (stereo not drawn)            48
2  CCCC1CC1C1=C2C(=O)N(C(C)C(C)=O)C(=O)C2C2(c3oc(OC)cc31)C1CCCC2CCC1 (stereo not drawn)            78
3  O=C1OC(=O)C2C1=C(C1CC1)c1c(sc3ccccc13)C21C2CCC1CC2 (stereo not drawn)            58
4  CN(C)c1ccc2cc(CCCN3C(=O)C4=C(C5CC5)c5c([N+](=O)[O-])csc5C5(C6CC7CC(C6)CC5C7)C4C3=O)ccc2c1 (stereo not drawn)            52

# per-item lookup of T1/2; items listed below
1. CNC(=O)CCC(=O)CCN1C(=O)C2=C(C3CC3SC)c3ccn(C)c3C3(C4CCC3(C)CC4)C2C1=O (stereo not drawn)
2. N#CCN1C(=O)C2=C(C3CC3Oc3ccccc3)c3ccoc3C3(C4CCC3CC4)C2C1=O (stereo not drawn)
3. CC1=C2C(=O)N(CC#N)C(=O)C2C2(c3occc31)C1CCC2CC1 (stereo not drawn) [(D), reference compound]
4. O=C(CN1C(=O)C2=C(C3CC3)c3c(sc4c3CCCC4)C3(C4CC5CC(C4)CC3C5)C2C1=O)NCCCl (stereo not drawn)
5. CCCCC1CC2CCCC(C1)C21c2sc(C)c(CC)c2C(C2C(I)C2I)=C2C(=O)N(CC3CCCCC3C#N)C(=O)C21 (stereo not drawn)
6. Cc1cc2c(n1C)C1(C3CCCC1CCC3)C1C(=O)OC(=O)C1=C2C1CC1 (stereo not drawn)
7. CCC(C(=O)C[N+](=O)[O-])N1C(=O)C2=C(C3CC3)c3cc(OC)cc(OC)c3C3(C4CC5CC(C4)CC3C5)C2C1=O (stereo not drawn)

65
88
48
59
51
56
65
